B1: library; numbered along this chain (parent)
chain: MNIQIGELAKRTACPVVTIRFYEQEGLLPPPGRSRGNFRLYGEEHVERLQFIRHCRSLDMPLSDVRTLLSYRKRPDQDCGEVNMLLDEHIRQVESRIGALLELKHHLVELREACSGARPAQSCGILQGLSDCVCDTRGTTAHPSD

variants of: B1; experiment: sfGFP reporter fluorescence (15 h) (µM FITC); higher = stronger transcriptional activation; conditions: library round: Round 0; ligand: 1 µM Pb
Measurement kind: sfGFP reporter fluorescence

1) P61I; 0.0641
2) L129D; 0.0599
3) P61N K104V G128M; 1.03
4) G36W; 0.0601
5) Y41K; 0.061
6) R33S; 0.0605
7) M60L P61N K104V L107C; 1.66
8) E43M; 0.099
9) V108E; 0.0665
10) E43N; 0.0828
11) V82N; 0.0597
12) F21S; 0.0608
13) V46W; 0.0757
14) D64K G128I; 1.32
15) L85S; 0.059
16) L58H; 0.0594
17) E7H; 0.083
18) N83V; 0.0762
19) D131C; 0.0779
20) L58K; 0.0691
21) C14A; 0.0726
22) C114T; 0.0586
23) E7P; 0.0709
24) D131F; 0.0821
25) L129T; 0.0581
26) I3V; 0.124
27) D135I; 0.0927
28) P15I; 0.0612
29) H89A; 0.057
30) H89R; 0.0936
31) C114M; 0.0603
32) R111L; 0.0647
33) K104S; 0.092
34) L126K; 0.0592
35) M60K; 0.061
36) C55R; 0.0592
37) E94H; 0.0632
38) F21H; 0.0629
39) E94K; 0.0793
40) C114A; 0.0559
41) N83P; 0.0579
42) K104V G128I; 0.287
43) V16N; 0.0869
44) L129Y; 0.059
45) I90G; 0.0577
46) D64K; 0.382
47) R111M; 0.0623
48) V108Q; 0.068
49) I125T; 0.0566
50) L107R; 0.055
51) G128V; 0.131
52) L107P; 0.0528
53) P15K; 0.0958
54) I97L; 0.0797
55) L28I; 0.0841
56) E109V; 0.107
57) E109D; 0.0727
58) C114L; 0.0583
59) L58W; 0.0685
60) Q77A; 0.128
61) V46A; 0.0757
62) K104G; 0.0524
63) D135G; 0.0764
64) D64C; 0.335
65) C134T; 0.0823
66) V108F; 0.0685
67) I97Y; 0.0825
68) E109R; 0.102
69) R111P; 0.0585
70) H89C; 0.0574
71) E23A; 0.0583
72) I90Q; 0.0737
73) D135Y; 0.116
74) L107A; 1.97
75) C134A; 0.0821
76) C55H; 0.0614
77) D131W; 0.0727
78) R111Y; 0.0651
79) I97V; 0.0605
80) I90S; 0.0671
81) P61N L107C G128M; 4.37
82) E43D; 0.072
83) D64P; 0.076
84) R91A; 0.0724
85) P30Q; 0.0925
86) G6D; 0.0605
87) M60H; 0.0614
88) I3Y; 0.0674
89) T139A; 0.0737
90) D64E; 0.061
91) M60L D64K L107C G128M; 4.82
